Ok so here's the combined literature set: IC50 for Ubiquitin carboxyl-terminal hydrolase 28 (Homo sapiens, UniProt Q96RU2).

Here's what some known entries look like.
MOLECULE: Cc1ccc(S(=O)(=O)N(C)C)cc1NC(=O)CN1CCN(C)CC1
TESTED SYSTEM: Ubiquitin carboxyl-terminal hydrolase 28 (Homo sapiens, UniProt Q96RU2)
ASSAY ENDPOINT: IC50
VALUE REPORTED: 1000 to 10000 nM
--
MOLECULE: CCCc1nc2sc(C(=O)NCC(C)c3ccc(OC)c(OC)c3)c(N)c2c2c1CCC2 (centres unmarked)
TESTED SYSTEM: Ubiquitin carboxyl-terminal hydrolase 28 (Homo sapiens, UniProt Q96RU2)
ASSAY ENDPOINT: IC50
VALUE REPORTED: < 1000 nM
--
MOLECULE: O=C(Nc1ccc(-c2noc(Cc3ccc(Cl)c(Cl)c3)n2)cn1)[C@H]1CCNC1
TESTED SYSTEM: Ubiquitin carboxyl-terminal hydrolase 28 (Homo sapiens, UniProt Q96RU2)
ASSAY ENDPOINT: IC50
VALUE REPORTED: 1000 to 10000 nM
--
MOLECULE: COc1cccc(Cc2noc(-c3ccc(OCC(=O)N[C@@H]4C[C@@H](C)N(C#N)C4)cc3)n2)c1
TESTED SYSTEM: Ubiquitin carboxyl-terminal hydrolase 28 (Homo sapiens, UniProt Q96RU2)
ASSAY ENDPOINT: IC50
VALUE REPORTED: > 1000 nM
--
MOLECULE: Cc1ccc(S(=O)(=O)Nc2ccc(-n3ccnc3)cc2)cc1NC(=O)Cc1ccc(Cl)c(Cl)c1
TESTED SYSTEM: Ubiquitin carboxyl-terminal hydrolase 28 (Homo sapiens, UniProt Q96RU2)
ASSAY ENDPOINT: IC50
VALUE REPORTED: 1000 to 10000 nM

Request: Answer briefly: IC50 recorded on Ubiquitin carboxyl-terminal hydrolase 28 (Homo sapiens, UniProt Q96RU2) for C[C@@H]1C[C@@H](NC(=O)Cc2ccc(-c3nc(Cc4cccc(Cl)c4)no3)cc2)CN1C#N
Result: > 1000 nM

Request: Answer briefly: IC50 recorded on Ubiquitin carboxyl-terminal hydrolase 28 (Homo sapiens, UniProt Q96RU2) for CCCc1ccc2c(n1)sc1c(NCCc3ccc(N(C)C)cc3)ncnc12
Result: < 1000 nM

Request: Answer briefly: IC50 recorded on Ubiquitin carboxyl-terminal hydrolase 28 (Homo sapiens, UniProt Q96RU2) for CCCc1nc2sc3c(NCCc4ccc5c(c4)OCCO5)ncnc3c2c2c1CCC2
Result: 1000 to 10000 nM

----------
Ok so here's the combined literature set: IC50 for Ubiquitin carboxyl-terminal hydrolase 28 (Homo sapiens, UniProt Q96RU2).

Here's what some known entries look like.
ENTRY SMILES: Cc1oc(Cc2cccc(Cl)c2)nc1-c1ccc(OCc2cc(C(=O)N(C)C)n(C)n2)cc1
IC50: 0.05 to 0.5 µM

ENTRY SMILES: C[C@@H]1C[C@@H](NC(=O)COc2ccc(-c3nc(Cc4ccc(Cl)cc4)no3)cc2)CN1C#N
IC50: 0.05 to 0.5 µM

ENTRY SMILES: CN1CCN(c2cc(Cn3cc(-c4nc(-c5ccc(OC(F)(F)F)cc5)no4)ccc3=O)ccn2)CC1
IC50: > 100 µM

ENTRY SMILES: Cc1ccc(S(=O)(=O)N(C)C)cc1NC(=O)Cc1ccc(-c2ccccc2)cc1
IC50: > 100 µM

ENTRY SMILES: COc1ccc(CCNC(=O)c2sc3nc(C)c4c(c3c2N)CCC4)cc1OC
IC50: < 1 µM

Request: Supply measured IC50 of C[C@@H]1C[C@@H](NC(=O)COc2ccc(-c3nc(Cc4cccc(Cl)c4)no3)cc2)CN1C#N in your reply.
Result: 0.05 to 0.5 µM

Request: Supply measured IC50 of Cc1ccc2c(N)c(C(=O)NCCc3ccc(N4CCN(C(=O)OC(C)(C)C)CC4)cc3)sc2n1 in your reply.
Result: < 1 µM

Request: Supply measured IC50 of C[C@@H]1C[C@@H](NC(=O)/C=C/c2ccc(-c3nc(Cc4cccc(Cl)c4)no3)cc2)CN1C#N in your reply.
Result: 0.05 to 0.5 µM
